Value source: ChEMBL document CHEMBL5126498

- tested target: Procathepsin L (Homo sapiens)
- Sequence (P07711 114-333 limits assumed): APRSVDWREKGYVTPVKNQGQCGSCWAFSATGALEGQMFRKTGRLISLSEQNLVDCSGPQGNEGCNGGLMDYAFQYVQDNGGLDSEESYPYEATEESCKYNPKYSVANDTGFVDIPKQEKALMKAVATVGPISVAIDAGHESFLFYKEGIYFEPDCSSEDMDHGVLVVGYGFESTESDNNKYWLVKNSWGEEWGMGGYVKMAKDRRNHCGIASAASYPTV
- assay comment: Inhibition of human cathepsin L at 1 uM relative to control
inhibition overview
Give the quantity in %, number only.

In the examples that follow, each entry is paired with its recorded inhibition.
What the record says about COc1cccc2[nH]c(C(=O)N[C@@H](CC(C)C)C(=O)N[C@H](C#N)C[C@@H]3CCNC3=O)cc12 : inhibition is 15

What the record says about COc1cc(Cl)cc2[nH]c(C(=O)N[C@@H](CC(C)(C)C)C(=O)N[C@H](C#N)C[C@@H]3CCCNC3=O)cc12 : inhibition is 18

What the record says about CC(C)C[C@H](NC(=O)c1cc2c(OC(F)(F)F)cccc2[nH]1)C(=O)N[C@H](C#N)C[C@@H]1CCCNC1=O : inhibition is 8

What the record says about COc1cc(Cl)cc2[nH]c(C(=O)N[C@@H](CC(C)C)C(=O)N[C@H](C#N)C[C@@H]3CCCNC3=O)cc12 : inhibition is 37

What the record says about COc1cccc2[nH]c(C(=O)N[C@@H](CC(C)C)C(=O)N[C@H](C#N)C[C@@H]3CCCNC3=O)cc12 : inhibition is 22

What the record says about CC(C)C[C@H](NC(=O)c1cc2c3c(ccc2[nH]1)CCO3)C(=O)N[C@H](C#N)C[C@@H]1CCCNC1=O : inhibition is 10

***
What the record says about COc1cccc2[nH]c(C(=O)N[C@@H](CC(C)C)C(=O)N[C@H](C=O)C[C@@H]3CCNC3=O)cc12 : inhibition is 53

What the record says about CC(C)C[C@H](NC(=O)OCc1ccccc1)C(=O)N[C@@H](C[C@@H]1CCNC1=O)C(O)S(=O)(=O)O (some centres undefined) : inhibition is 100

---

Let's go through some pIC50 measurements on Cathepsin B (Homo sapiens, UniProt P07858) together.
Please keep in mind that pIC50 is minus log10 of the molar concentration; only the number is needed.

What the record says about COc1cc(Cl)cc2[nH]c(C(=O)N[C@@H](CC(C)C)C(=O)N[C@H](C#N)C[C@@H]3CCCNC3=O)cc12 : pIC50 is 4.74

What the record says about COc1cccc2[nH]c(C(=O)N[C@@H](CC(C)C)C(=O)N[C@H](C=O)C[C@@H]3CCNC3=O)cc12 : pIC50 is 5.70

What the record says about CC(C)C[C@H](NC(=O)OCc1ccccc1)C(=O)N[C@@H](C[C@@H]1CCNC1=O)C(O)S(=O)(=O)O (stereo not given in full) : pIC50 is 5.85

What the record says about COc1cccc2[nH]c(C(=O)N[C@@H](CC(C)C)C(=O)N[C@H](C#N)C[C@@H]3CCNC3=O)cc12 : pIC50 is 4.55

***
What the record says about COc1cccc2[nH]c(C(=O)N[C@@H](CC(C)C)C(=O)N[C@H](C#N)C[C@@H]3CCCNC3=O)cc12 : pIC50 is 4.49

---

- assay comment: Cytotoxicity against human A549 cells assessed as reduction in cell viability by CellTiter-Glo assay
- Format: toxicity, cell-based
readout label: CC50

In the examples that follow, each entry is paired with its recorded CC50.
What the record says about COc1cccc2[nH]c(C(=O)N[C@@H](CC(C)C)C(=O)N[C@@H](C[C@@H]3CCCNC3=O)C(=O)CO)cc12 : CC50 is > 200 µM

What the record says about CC(C)C[C@H](NC(=O)OCc1ccccc1)C(=O)N[C@@H](C[C@@H]1CCNC1=O)C(O)S(=O)(=O)O (stereo partly specified) : CC50 is > 200 µM

What the record says about COc1cccc2[nH]c(C(=O)N[C@@H](CC(C)C)C(=O)N[C@H](C#N)C[C@@H]3CCNC3=O)cc12 : CC50 is > 200 µM

***
What the record says about COc1cc(Cl)cc2[nH]c(C(=O)N[C@@H](CC(C)(C)C)C(=O)N[C@H](C#N)C[C@@H]3CCCNC3=O)cc12 : CC50 is > 200 µM

What the record says about CCOc1cccc2[nH]c(C(=O)N[C@@H](CC(C)C)C(=O)N[C@H](C#N)C[C@@H]3CCCNC3=O)cc12 : CC50 is > 200 µM

What the record says about CC(C)C[C@H](NC(=O)c1cc2c(OC(F)(F)F)cccc2[nH]1)C(=O)N[C@H](C#N)C[C@@H]1CCCNC1=O : CC50 is 90 µM
